- METHOD DESCRIPTION: AUC (0 to t) in mouse at 5.5 mg/kg, ip by HPLC/MS/MS analysis
- Type: ADME, organism-based
- STUDY CONDITIONS: in vivo

STRUCTURE STRING	AUC(0-t)
c1ccc([C@@H]2C[C@H]2NC2CCNCC2)cc1	871 ng·h/mL

---

In this section we review reported EC50 values for a set of molecules.
- MEASUREMENT TARGET: D(2) dopamine receptor (Homo sapiens)
- Sequence (P14416 whole entry): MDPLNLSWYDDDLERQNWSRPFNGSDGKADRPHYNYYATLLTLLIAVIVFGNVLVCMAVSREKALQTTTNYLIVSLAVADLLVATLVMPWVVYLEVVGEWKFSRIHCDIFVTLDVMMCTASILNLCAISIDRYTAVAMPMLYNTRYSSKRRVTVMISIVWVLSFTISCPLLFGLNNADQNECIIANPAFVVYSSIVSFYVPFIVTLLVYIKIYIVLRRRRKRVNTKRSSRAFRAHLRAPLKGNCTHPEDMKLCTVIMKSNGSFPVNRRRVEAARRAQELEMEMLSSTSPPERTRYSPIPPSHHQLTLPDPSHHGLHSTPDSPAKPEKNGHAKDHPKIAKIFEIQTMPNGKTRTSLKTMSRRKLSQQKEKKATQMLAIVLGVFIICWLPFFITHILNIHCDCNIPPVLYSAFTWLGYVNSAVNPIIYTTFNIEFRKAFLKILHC
- METHOD DESCRIPTION: Agonist activity at Dopamine D2 receptor (unknown origin)
- Format: functional

STRUCTURE STRING	READING QUALIFIER	EC50 (µM)
O=C(O)c1ccc(CN2CCC(CN[C@@H]3C[C@H]3c3ccccc3)CC2)cc1	=	20
c1ccc([C@@H]2C[C@H]2NC2CCNCC2)cc1	>	100

---

- MEASUREMENT TARGET: Substance-P receptor (Homo sapiens, UniProt P25103)
- Sequence (P25103 whole entry): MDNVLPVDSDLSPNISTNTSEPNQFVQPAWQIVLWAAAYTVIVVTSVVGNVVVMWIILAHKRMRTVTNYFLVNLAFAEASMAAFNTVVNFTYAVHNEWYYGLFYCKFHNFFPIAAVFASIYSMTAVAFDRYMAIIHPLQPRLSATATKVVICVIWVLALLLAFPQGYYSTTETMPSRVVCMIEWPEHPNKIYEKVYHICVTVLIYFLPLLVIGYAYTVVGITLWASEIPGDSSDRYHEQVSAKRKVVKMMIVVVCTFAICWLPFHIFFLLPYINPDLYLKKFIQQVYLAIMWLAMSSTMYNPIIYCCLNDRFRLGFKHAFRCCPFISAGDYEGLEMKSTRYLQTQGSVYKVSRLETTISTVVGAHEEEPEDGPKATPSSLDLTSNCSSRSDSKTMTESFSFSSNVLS
- METHOD DESCRIPTION: Antagonist activity at NK1 receptor (unknown origin)
- Format: functional
pEC50: −log10 of the molar value.
MEASUREMENT NAME: pEC50

STRUCTURE STRING	READOUT VALUE
c1ccc([C@@H]2C[C@H]2NC2CCNCC2)cc1	< 4.60
O=C(O)c1ccc(CN2CCC(CN[C@@H]3C[C@H]3c3ccccc3)CC2)cc1	< 4.40

---

In this section we review reported pEC50 values for a set of compounds.
- MEASUREMENT TARGET: Muscarinic acetylcholine receptor M2 (Homo sapiens)
- Sequence (P08172 whole entry): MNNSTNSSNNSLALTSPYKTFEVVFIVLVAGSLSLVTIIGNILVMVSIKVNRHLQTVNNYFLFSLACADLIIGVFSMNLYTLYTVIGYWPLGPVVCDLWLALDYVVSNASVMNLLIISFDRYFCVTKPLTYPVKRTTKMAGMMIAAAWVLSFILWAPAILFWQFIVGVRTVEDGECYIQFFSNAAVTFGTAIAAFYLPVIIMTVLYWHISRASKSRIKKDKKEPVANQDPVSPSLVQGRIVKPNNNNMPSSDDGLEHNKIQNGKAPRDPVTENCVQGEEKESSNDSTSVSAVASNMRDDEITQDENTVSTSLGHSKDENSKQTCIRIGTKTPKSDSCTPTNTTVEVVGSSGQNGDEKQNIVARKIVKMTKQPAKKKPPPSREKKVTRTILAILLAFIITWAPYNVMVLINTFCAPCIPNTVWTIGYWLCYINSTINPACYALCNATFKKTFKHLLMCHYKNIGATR
- METHOD DESCRIPTION: Agonist activity at Muscarinic M2 receptor (unknown origin)
- Type: functional
pEC50: −log10 of the molar value.

STRUCTURE STRING	pEC50
c1ccc([C@@H]2C[C@H]2NC2CCNCC2)cc1	< 4.52
O=C(O)c1ccc(CN2CCC(CN[C@@H]3C[C@H]3c3ccccc3)CC2)cc1	< 4.80

---

In this section we review reported pIC50 values for a set of compounds.
- MEASUREMENT TARGET: Potassium voltage-gated channel subfamily A member 5 (Homo sapiens)
- Sequence (P22460 whole entry): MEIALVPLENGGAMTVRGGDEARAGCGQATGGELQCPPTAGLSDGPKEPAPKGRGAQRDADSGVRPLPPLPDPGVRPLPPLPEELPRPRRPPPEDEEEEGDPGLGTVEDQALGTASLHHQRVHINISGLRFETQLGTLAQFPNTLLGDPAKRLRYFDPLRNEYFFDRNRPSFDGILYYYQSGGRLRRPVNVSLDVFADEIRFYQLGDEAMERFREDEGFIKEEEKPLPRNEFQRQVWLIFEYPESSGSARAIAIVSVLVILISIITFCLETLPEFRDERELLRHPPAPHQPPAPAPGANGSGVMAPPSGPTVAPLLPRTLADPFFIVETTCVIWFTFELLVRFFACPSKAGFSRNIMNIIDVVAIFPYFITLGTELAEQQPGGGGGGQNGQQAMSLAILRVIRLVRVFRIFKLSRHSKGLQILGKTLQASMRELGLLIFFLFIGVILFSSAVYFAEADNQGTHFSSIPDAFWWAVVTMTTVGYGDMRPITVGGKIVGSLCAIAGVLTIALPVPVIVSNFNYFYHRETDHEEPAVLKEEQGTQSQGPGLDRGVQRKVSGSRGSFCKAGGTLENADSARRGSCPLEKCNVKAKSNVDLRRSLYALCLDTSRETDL
pIC50: −log10 of the molar value.
MEASUREMENT NAME: pIC50

STRUCTURE STRING	READOUT VALUE
c1ccc([C@@H]2C[C@H]2NC2CCNCC2)cc1	< 4.52
O=C(O)c1ccc(CN2CCC(CN[C@@H]3C[C@H]3c3ccccc3)CC2)cc1	< 4.52
